B1: tRNA (parent)
chain: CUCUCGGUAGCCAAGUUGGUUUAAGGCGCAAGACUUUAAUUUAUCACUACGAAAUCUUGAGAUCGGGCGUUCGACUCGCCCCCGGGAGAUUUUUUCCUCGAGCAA

Variants of: B1
Experiment: nonsense suppression (GFP-seq) (ratio to wild type); higher = more function; SUP4oc tRNA, yeast GFP reporter sort-seq
This sample holds only a part of the variants without activity.
Result Type: nonsense suppression

Example variants with recorded nonsense suppression:
A9G C12A: ≤ 0.026
A60C G66C: ≤ 0.026
G10U C29A: ≤ 0.026
A30U G69U C80U: ≤ 0.026

I am curious: what nonsense suppression value has been reported for C11U G18A ? ≤ 0.026

Next record, please: A23G C56G G65A U71G ≤ 0.026

Next record, please: U20G C81G ≤ 0.026

Next record, please: C11U C12A G88A ≤ 0.026

Next record, please: U20C C27G ≤ 0.026

Next record, please: A14G A54G ≤ 0.026
